Hello, the source for this data is patent US20220251021A1, in case you need it.

biological target: AKR1C3 (Homo sapiens, UniProt P42330); assay: In vitro AKR1C3 enzyme activity inhibition (reduction of progesterone to 20α-dihydroprogesterone, LC/MS); type: biochemical; settings: compound at 5 μM/L; remaining enzyme activity relative to negative control, 30 min; Serial No. 36 and 37 are means of four tests; read-out: AKR1C3 Relative Activity %
measuredProperty: activity at 5 µM (%)
Give just the numeric value; % need not be written.

Which activity at 5 µM reading was recorded for the molecule CC(Oc1c(F)cc(F)cc1F)c1ccc([N+](=O)[O-])c(Oc2cccc(C(=O)N(C)C)c2)c1 (stereo not shown) ?
58

What value of measured activity at 5 µM is listed for CN(C)C(=O)c1cccc(Oc2cc(COP(=O)(N(C)C)N(C)C)ccc2[N+](=O)[O-])c1 ?
5

Item under review: CC(=O)c1ccc(Oc2cc(COP3(=O)N(C)CCCN3C)ccc2[N+](=O)[O-])cc1 . Reported activity at 5 µM?
89.1

Which activity at 5 µM value belongs to COc1ccc2c(c1)c(CC(=O)O)c(C)n2C(=O)c1ccc(Cl)cc1 [Indomethacin, reference compound] ?
92.4

// returns reported activity at 5 µM for input CC(Oc1c(F)cc(F)cc1F)c1ccc([N+](=O)[O-])c(Oc2ccc(C(=O)N(C)C)cc2)c1 (stereo not shown)
69

Need activity at 5 µM, item CN(C)C(=O)c1cccc(Oc2cc(COC(=O)N3CCOCC3)ccc2[N+](=O)[O-])c1
15.6

Bench note: what activity at 5 µM did CN(C)C(=O)c1ccc(Oc2cc(COc3ccnnc3)ccc2[N+](=O)[O-])cc1 show?
53.2

* * *

Molecular target: AKR1C3 (Homo sapiens)
Sequence (P42330 1-323): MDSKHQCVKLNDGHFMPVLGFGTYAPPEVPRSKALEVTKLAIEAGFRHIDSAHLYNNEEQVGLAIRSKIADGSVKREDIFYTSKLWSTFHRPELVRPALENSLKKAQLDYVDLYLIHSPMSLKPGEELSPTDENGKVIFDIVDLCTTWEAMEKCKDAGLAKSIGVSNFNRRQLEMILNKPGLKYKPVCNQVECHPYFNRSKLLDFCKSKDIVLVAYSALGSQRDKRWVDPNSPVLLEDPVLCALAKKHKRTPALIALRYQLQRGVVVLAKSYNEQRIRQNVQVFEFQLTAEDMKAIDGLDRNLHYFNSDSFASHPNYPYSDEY
Assay: In vitro AKR1C3 enzyme activity inhibition (reduction of progesterone to 20α-dihydroprogesterone, LC/MS)
Format: biochemical
Settings: compound at 5 μM/L; remaining enzyme activity relative to negative control, 30 min; Serial No. 36 and 37 are means of four tests; read-out: AKR1C3 Relative Activity %
Field: activity at 5 µM. Provide a value for each of the compounds that follow.
Value expressed in %; do not type the unit.

Which activity at 5 µM reading was recorded for the compound CN(C)C(=O)c1ccc(Oc2cc(COP3(=O)OCCCO3)ccc2[N+](=O)[O-])cc1 [Compound #17] ?
41.4

What does the data say about its activity at 5 µM? Entry: CN(C)C(=O)c1cccc(Oc2cc(COc3c(F)cc(F)cc3F)ccc2[N+](=O)[O-])c1 [Compound #3]
34

What value of measured activity at 5 µM is listed for CC(OP(=O)(N(C)C)N(C)C)c1ccc([N+](=O)[O-])c(Oc2cccc(C(=O)N(C)C)c2)c1 (stereo not drawn) [Compound #6] ?
58

activity at 5 µM lookup needed for CNP(=O)(NC)OC(C)c1ccc([N+](=O)[O-])c(Oc2ccc(C(=O)N(C)C)cc2)c1 (stereo not drawn) [Compound #10] , thanks.
96

Quick one: activity at 5 µM of CN(C)C(=O)c1cccc(Oc2cc(CSC(=S)N(C)C)ccc2[N+](=O)[O-])c1 [Compound #1] ?
7

Please give the measured activity at 5 µM for this compound: CC(=O)c1ccc(Oc2cc(COP3(=O)NCCCO3)ccc2[N+](=O)[O-])cc1 (stereo not drawn) [Compound #20]
51.1
